System: B. subtilis (ATCC-6633)
Test: microbe, parasite or virus in culture
Format: cell-based, Bacillus subtilis
Details: ATCC-6633, 24 h
Non-standard residues stand in square brackets, D forms with d. Residues, ends and D or L forms follow the SMILES beside them. Dip = N[C@H](C(=O)O)C(c1ccccc1)c1ccccc1
Measured Endpoint: MIC (µM)
Please respond with the number in µM and leave the unit unwritten.

Note to self: MIC recorded for N=C(N)NCCC[C@H](NC(=O)[C@@H](NC(=O)[C@H](CCCNC(=N)N)NC(=O)[C@@H](NC(=O)[C@H](CCCNC(=N)N)NC(=O)[C@H](Cc1c[nH]c2ccccc12)NC(=O)[C@H](CCCNC(=N)N)NC(=O)[C@H](Cc1c[nH]c2ccccc12)NC(=O)[C@H](CCCNC(=N)N)NC(=O)[C@@H](N)Cc1c[nH]c2ccccc12)C(c1ccccc1)c1ccccc1)C(c1ccccc1)c1ccccc1)C(=O)O [((DipR)2(WR)3)] (H-WRWRWR[Dip]R[Dip]R-OH) was 1.6

Note to self: MIC recorded for N=C(N)NCCC[C@H](NC(=O)[C@H](CCCNC(=N)N)NC(=O)[C@@H](NC(=O)[C@H](CCCNC(=N)N)NC(=O)[C@@H](NC(=O)[C@H](CCCNC(=N)N)NC(=O)[C@@H](NC(=O)[C@H](CCCNC(=N)N)NC(=O)[C@@H](N)C(c1ccccc1)c1ccccc1)C(c1ccccc1)c1ccccc1)C(c1ccccc1)c1ccccc1)C(c1ccccc1)c1ccccc1)C(=O)O [(DipR)4R] (H-[Dip]R[Dip]R[Dip]R[Dip]RR-OH) was 1.6

Shifting focus to the compound that follows.
Note to self: MIC recorded for CCCCCCCCCC(=O)N[C@@H](Cc1c[nH]c2ccccc12)C(=O)N[C@H](CC(N)=O)C(=O)N[C@@H](CC(=O)O)C(=O)N[C@@H]1C(=O)NCC(=O)N[C@@H](CCCN)C(=O)N[C@@H](CC(=O)O)C(=O)N[C@H](C)C(=O)N[C@@H](CC(=O)O)C(=O)NCC(=O)N[C@H](CO)C(=O)N[C@@H]([C@H](C)CC(=O)O)C(=O)N[C@@H](CC(=O)c2ccccc2N)C(=O)O[C@@H]1C [Daptomycin, reference compound] was 0.3
